Kindly supply the reported EC50 values for the records listed here.
Molecular target: human adenosine A2B receptor (Homo sapiens (Human), UniProt P29275)
Sequence (P29275 whole entry): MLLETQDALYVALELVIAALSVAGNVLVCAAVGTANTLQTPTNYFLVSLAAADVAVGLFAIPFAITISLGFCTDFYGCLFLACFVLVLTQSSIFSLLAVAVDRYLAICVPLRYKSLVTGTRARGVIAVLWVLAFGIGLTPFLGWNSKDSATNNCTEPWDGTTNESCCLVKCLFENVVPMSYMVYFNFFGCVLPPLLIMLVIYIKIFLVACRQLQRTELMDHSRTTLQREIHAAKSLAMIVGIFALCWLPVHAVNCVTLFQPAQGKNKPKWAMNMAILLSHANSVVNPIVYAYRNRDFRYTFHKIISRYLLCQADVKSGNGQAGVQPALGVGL
Experiment: Adenosine A2B Receptor Cyclic AMP GS Assay
Conditions: HEK-293 cells expressing human A2B receptor; agonist NECA at 12 nM; cAMP accumulation (FRET); read-out: A2B_cAMP_EC50
Description: Stably transfected HEK-293 cells expressing the human adenosine A2B receptor (Perkin Elmer) were maintained in MEM culture medium with 10% FBS and 100 μg/ml Geneticin (Life Technologies). 18 to 24 hours prior to assay, geneticin was removed from culture. The cisbio cAMP-GS Dynamic kit utilizing the FRET (Fluorescence Resonance Energy Transfer) technology was used to measure cAMP accumulation in the cells. […]

Ask | I would be grateful if you could share the reported EC50 for `CCNC(=O)c1nc2c(-c3ccnc(OC)c3)c(-c3cccc(C#N)c3)nc(N)n2c1C` .
Reply | 10 to 100 nM

Ask | Quick one: `CCn1nccc1-c1c(-c2cccc(C#N)c2)nc(N)n2nc(Cc3ccccn3)nc12`
Reply | < 10 nM

Ask | Same again, this time with N#Cc1cccc(-c2nc(N)n3nc(C(O)c4c(F)cccc4F)nc3c2-c2ccncn2)c1 (single isomer, unassigned) [Example 76]
Reply | < 10 nM

Ask | Now this one: `N#Cc1cccc(-c2nc(N)n3nc(Cc4ncccc4F)nc3c2-c2ccncn2)c1`
Reply | < 10 nM

* * *

Biological target: human adenosine A2B receptor (Homo sapiens (Human))
Assay: Adenosine A2B Receptor Cyclic AMP GS Assay
Settings: HEK-293 cells expressing human A2B receptor; agonist NECA at 12 nM; cAMP accumulation (FRET); read-out: A2B_cAMP_EC50
metric name: EC50

Ask | What does the data say about its EC50? Entry: `Cc1cccc(Cc2nc3c(-c4ccncn4)c(-c4cccc(C#N)c4)nc(N)n3n2)n1`
Reply | 0.01 to 0.1 µM

Ask | Try `CCNC(=O)c1cn2c(N)nc(-c3cccc(C#N)c3)c(-c3ccncc3)c2n1` next.
Reply | < 0.01 µM

Ask | And what about the compound `Nc1nc(-c2ccncc2)c(-c2ccncc2)c2nccn12` ?
Reply | 0.01 to 0.1 µM

Ask | // next record `Cc1cccnc1CNc1nc2c(-c3ccncn3)c(-c3cccc(C#N)c3)nc(N)n2n1`
Reply | < 0.01 µM

Ask | Next: `CCn1nccc1-c1c(-c2cccc(C#N)c2)nc(N)n2nc(CC3CCCCC3)nc12`
Reply | 0.01 to 0.1 µM

Ask | Subsequent entry: `CCn1cc(-c2c(-c3cccc(C#N)c3)nc(N)n3cc(C(=O)Nc4cnn(CCO)c4)nc23)ccc1=O`
Reply | 0.1 to 1 µM

Ask | Can you check `CCn1nccc1-c1c(-c2cccc(C#N)c2)nc(N)n2nc(Cc3nn(C)c4ccccc34)nc12` next?
Reply | 0.01 to 0.1 µM

Ask | Check `N#Cc1cccc(-c2nc(N)n3nc([C@H](O)c4ccccc4)nc3c2-c2ccncn2)c1` too.
Reply | < 0.01 µM

* * *

Target: UniProt:P29274
Experiment: A2A Tag-lite HTRF Assay
Details: Tag-lite Adenosine A2A labeled cells; A2A Receptor Red antagonist fluorescent ligand 12.5 nM; one-site competitive binding model; read-out: A2A_Ki
pKi: −log10 of the molar value.
Field: pKi. Provide a value for each of the compounds that follow.

Ask | Please give the measured pKi for this compound: `CCNC(=O)c1cn2c(N)nc(-c3cccc(C#N)c3)c(-c3ccnn3CC)c2n1`
Reply | > 8.00

Ask | Follow-up item: `N#Cc1cccc(-c2nc(N)n3nc([C@H](O)c4ccccc4)nc3c2-c2ccncn2)c1`
Reply | > 8.00

Ask | And the next one, `Cc1occc1-c1nc(N)n2ccnc2c1-c1ccncc1` ?
Reply | 7.00 to 8.00

Ask | Cool, now `CCn1nncc1-c1c(-c2cccc(C#N)c2)nc(N)n2nc(Cc3ccccn3)nc12`
Reply | > 8.00

Ask | `Cc1ncoc1-c1c(-c2cccc(C#N)c2F)nc(N)n2nc(Cc3ccccn3)nc12` ?
Reply | > 8.00

* * *

Target: human adenosine A2B receptor (Homo sapiens (Human), UniProt P29275)
Assay: Adenosine A2B Receptor Cyclic AMP GS Assay
Settings: HEK-293 cells expressing human A2B receptor; agonist NECA at 12 nM; cAMP accumulation (FRET); read-out: A2B_cAMP_EC50
metric name: EC50

Ask | For the compound `CCn1nccc1-c1c(-c2cccc(C#N)c2)nc(N)n2nc(C3(c4ccccc4)CC3)nc12` , what EC50 is on record?
Reply | 0.1 to 1 µM

Ask | Now try `N#Cc1cccc(-c2nc(N)n3nc([C@@H](O)c4ccccc4)nc3c2-c2ccncn2)c1` .
Reply | < 0.01 µM

Ask | Lookup `CCNC(=O)c1cn2c(N)nc(-c3cccc(C#N)c3)c(-c3ccncn3)c2n1`
Reply | 0.01 to 0.1 µM

Ask | `Cc1cc(-c2c(-c3ccccc3)nc(N)n3cc(-c4ccccc4)nc23)ccn1` ?
Reply | 0.1 to 1 µM

* * *

Target: UniProt:P29274
Assay: A2A Tag-lite HTRF Assay
Details: Tag-lite Adenosine A2A labeled cells; A2A Receptor Red antagonist fluorescent ligand 12.5 nM; one-site competitive binding model; read-out: A2A_Ki
metric name: Ki

Ask | What does the record list as Ki for CCn1nccc1-c1c(-c2cccc(C#N)c2)nc(N)n2nc(C3(c4ccccc4)CC3)nc12 [Example 67] ?
Reply | < 0.01 µM

Ask | Would you kindly repeat that for CCn1nccc1-c1c(-c2cccc(C#N)c2)nc(N)n2nc(Cc3ccccn3)nc12 [Example 42] ?
Reply | < 0.01 µM

Ask | Also CCNC(=O)c1cn2c(N)nc(-c3cccc(C#N)c3)c(-c3ccncn3)c2n1 [Example 38] , if possible.
Reply | < 0.01 µM

Ask | Now consider Cc1cc(-c2c(-c3cnc4c(c3)CCN4)nc(N)n3ccnc23)cc(C)n1 [Example 2] .
Reply | 0.1 to 1 µM

Ask | Note, next up: CCNC(=O)c1nc2c(-c3ccnc(OC)c3)c(-c3cccc(C#N)c3)nc(N)n2c1C [Example 18]
Reply | 0.01 to 0.1 µM

Ask | Please give the result for Cc1cc(-c2c(-c3ccccc3)nc(N)n3cc(-c4ccccc4)nc23)ccn1 [Example 10] too.
Reply | < 0.01 µM

Ask | Next molecule: CCNC(=O)c1cn2c(N)nc(-c3cccc(C#N)c3)c(-c3ccnc4c3OCCO4)c2n1 [Example 39]
Reply | < 0.01 µM

Ask | Request: Cc1cnccc1-c1c(-c2cccc(C#N)c2)nc(N)n2nc(Cc3ccccn3)nc12 [Example 58]
Reply | < 0.01 µM

* * *

Kindly supply the reported pEC50 values for the records listed here.
Target: human adenosine A2B receptor (Homo sapiens (Human))
Assay: Adenosine A2B Receptor Cyclic AMP GS Assay
Details: HEK-293 cells expressing human A2B receptor; agonist NECA at 12 nM; cAMP accumulation (FRET); read-out: A2B_cAMP_EC50
pEC50: −log10 of the molar value.

Ask | Which pEC50 value is on record for `Cc1cccnc1COc1nc2c(-c3ccncn3)c(-c3cccc(C#N)c3)nc(N)n2n1` ?
Reply | > 8.00

Ask | Another compound to look at: `CCNC(=O)c1cn2c(N)nc(-c3cccc(C#N)c3)c(-c3ccncc3C)c2n1`
Reply | 7.00 to 8.00

Ask | Please do the same for `CCNC(=O)c1cn2c(N)nc(-c3cccc(C#N)c3)c(-c3cn[nH]c3C)c2n1` as well.
Reply | > 8.00

Ask | Note, next up: `CCn1nccc1-c1c(-c2cccc(C#N)c2)nc(N)n2nc(Cc3ncccc3OC)nc12`
Reply | 7.00 to 8.00

* * *

Please respond with reported pKi for every item in the list.
Biological target: Adenosine A2A receptor (Homo sapiens (Human))
Sequence (P29274 whole entry): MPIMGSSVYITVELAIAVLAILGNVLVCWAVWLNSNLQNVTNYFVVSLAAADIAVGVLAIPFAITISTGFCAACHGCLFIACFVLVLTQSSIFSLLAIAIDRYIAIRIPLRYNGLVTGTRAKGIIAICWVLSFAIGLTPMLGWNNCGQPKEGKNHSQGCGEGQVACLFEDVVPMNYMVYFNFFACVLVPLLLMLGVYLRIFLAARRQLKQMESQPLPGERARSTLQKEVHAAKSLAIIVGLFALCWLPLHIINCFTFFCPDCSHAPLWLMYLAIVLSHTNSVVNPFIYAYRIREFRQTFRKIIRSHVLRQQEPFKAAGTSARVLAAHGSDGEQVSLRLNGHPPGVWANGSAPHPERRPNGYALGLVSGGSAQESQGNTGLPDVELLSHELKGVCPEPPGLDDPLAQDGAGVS
Test: A2A Tag-lite HTRF Assay
Conditions: Tag-lite Adenosine A2A labeled cells; A2A Receptor Red antagonist fluorescent ligand 12.5 nM; one-site competitive binding model; read-out: A2A_Ki
pKi: −log10 of the molar value.

Ask | Give recorded pKi with Adenosine A2A receptor (Homo sapiens (Human)) for the following molecule: N#Cc1cccc(-c2nc(N)n3nc(Cc4c(F)cccc4CN4CCCS4(=O)=O)nc3c2-c2ccncn2)c1 [Example 86]
Reply | > 8.00

Ask | Check Cc1cc(C(F)(F)F)nn1Cc1nc2c(-c3ccncn3)c(-c3cccc(C#N)c3)nc(N)n2n1 [Example 81] too.
Reply | > 8.00

Ask | What do you have for Cc1ncoc1-c1c(-c2cccc(C#N)c2)nc(N)n2nc(Cc3ccn(C)n3)nc12 [Example 92] ?
Reply | > 8.00

Ask | Same lookup for CCNC(=O)c1nc2c(-c3cc(C)nc(C)c3)c(-c3ccccc3)nc(N)n2c1C#N [Example 21] , please.
Reply | > 8.00

Ask | Try this molecule too: Cc1cccc(COc2nc3c(-c4ccncn4)c(-c4cccc(C#N)c4)nc(N)n3n2)n1 [Example 95]
Reply | > 8.00

Ask | Also COC(=O)c1cc(-c2cn3c(N)nc(-c4ccccc4)c(-c4ccncc4)c3n2)on1 [Example 12] , if possible.
Reply | 7.00 to 8.00

Ask | Entry to check: CCn1nccc1-c1c(-c2cccc(C#N)c2)nc(N)n2nc(Cc3ncccc3F)nc12 [Example 52]
Reply | > 8.00

Ask | // same read-out, input: COc1cccc(-c2nc(N)n3ccnc3c2-c2ccncc2)c1 [Example 4]
Reply | > 8.00

Ask | Please answer likewise for Nc1nc(-c2ccncc2)c(-c2ccncc2)c2nccn12 [Example 5]
Reply | 7.00 to 8.00

Ask | Also check CCNC(=O)c1cn2c(N)nc(-c3cccc(C#N)c3)c(-c3ccc(C(N)=O)cc3)c2n1 [Example 32]
Reply | > 8.00

Ask | Another molecule to check: N#Cc1cccc(-c2nc(N)n3nc(Cc4ccccn4)nc3c2-c2ccncn2)c1 [Example 41]
Reply | > 8.00

Ask | Entry CCNC(=O)c1cn2c(N)nc(-c3cccc(C#N)c3)c(-c3ccncc3)c2n1 [Example 26] please
Reply | > 8.00

Ask | What about this molecule? Cn1cc(-c2ccccc2Cc2nc3c(-c4ccncn4)c(-c4cccc(C#N)c4)nc(N)n3n2)cn1 [Example 54]
Reply | > 8.00

Ask | Okay, and CCNC(=O)c1cn2c(N)nc(-c3cccc(C#N)c3)c(C3CC3)c2n1 [Example 40] ?
Reply | 7.00 to 8.00

Ask | Then what about the molecule Cc1ncoc1-c1c(-c2cccc(C#N)c2)nc(N)n2nc(Cc3cccc(C(F)(F)F)n3)nc12 [Example 89] ?
Reply | > 8.00

Ask | Same question, CCCn1nccc1-c1c(-c2cccc(C#N)c2)nc(N)n2nc(Cc3ccccn3)nc12 [Example 43] this time
Reply | > 8.00

Ask | Note, next up: N#Cc1cccc(-c2nc(N)n3nc(C(O)c4ccccc4F)nc3c2-c2ccncn2)c1 (centres unmarked) [Example 50]
Reply | > 8.00
